molecular target: α1b-AR (Homo sapiens); construct: expressed in transfected cells; host or cells: COS-7 cells (African Green monkey kidney), membranes; assay: α1-Adrenergic Receptor Binding Assay, 125I-HEAT radio-ligand binding, transfected COS-7 cell membranes, α1b subtype; settings: average value, COS-7 membranes, read-out: Alpha 1 Ki α1b (1) Average Value
Sequence (P35368 whole entry): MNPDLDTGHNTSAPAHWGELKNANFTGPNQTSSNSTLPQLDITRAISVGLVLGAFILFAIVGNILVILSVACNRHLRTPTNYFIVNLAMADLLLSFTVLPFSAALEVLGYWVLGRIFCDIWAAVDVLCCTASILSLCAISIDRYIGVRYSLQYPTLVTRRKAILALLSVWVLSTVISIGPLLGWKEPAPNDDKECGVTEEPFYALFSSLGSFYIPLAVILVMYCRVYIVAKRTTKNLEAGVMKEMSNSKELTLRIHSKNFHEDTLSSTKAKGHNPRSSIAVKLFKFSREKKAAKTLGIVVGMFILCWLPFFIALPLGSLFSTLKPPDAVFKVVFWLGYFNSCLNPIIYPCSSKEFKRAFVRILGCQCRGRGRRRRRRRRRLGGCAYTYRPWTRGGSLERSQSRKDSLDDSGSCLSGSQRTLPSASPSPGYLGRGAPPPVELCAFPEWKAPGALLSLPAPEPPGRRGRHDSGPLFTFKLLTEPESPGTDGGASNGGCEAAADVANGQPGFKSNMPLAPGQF
Measure name: Ki (nM)
Hi! Could you send only the number? It should be in nM, unit omitted.

Query: Need Ki, item CC(C)Oc1ccccc1N1CCN(CC2CC(C(=O)N3CCC(Oc4ccccc4)CC3)=NO2)CC1 (centres unmarked) [Compound 29]
Result: 672

Query: Need Ki, item CC(C)Oc1ccccc1N1CCN(CC2CC(CN3CCc4ccc(NCc5c(F)cccc5F)cc43)=NO2)CC1 (centres unmarked)
Result: 172

Query: Need Ki, item CC(C)Oc1ccccc1N1CCN(CC2CC(C(=O)N3CCOCC3)=NO2)CC1 (single isomer, unassigned) [Compound 44]
Result: 521

Query: Need Ki, item CC(C)Oc1ccccc1N1CCN(CC2CC(C(=O)N3CCc4ccccc43)=NO2)CC1 (centres unmarked) [Compound 10]
Result: 107

Query: Need Ki, item CC(C)Oc1ccccc1N1CCN(CC2CC(C(=O)N3CCc4ccccc43)=NO2)CC1 (single isomer, unassigned) [Compound 36]
Result: 191

----------
Biological target: α1d-AR (Homo sapiens, UniProt P25100)
Construct: expressed in transfected cells; host or cells: COS-7 cells (African Green monkey kidney), membranes
Sequence (P25100 1-572): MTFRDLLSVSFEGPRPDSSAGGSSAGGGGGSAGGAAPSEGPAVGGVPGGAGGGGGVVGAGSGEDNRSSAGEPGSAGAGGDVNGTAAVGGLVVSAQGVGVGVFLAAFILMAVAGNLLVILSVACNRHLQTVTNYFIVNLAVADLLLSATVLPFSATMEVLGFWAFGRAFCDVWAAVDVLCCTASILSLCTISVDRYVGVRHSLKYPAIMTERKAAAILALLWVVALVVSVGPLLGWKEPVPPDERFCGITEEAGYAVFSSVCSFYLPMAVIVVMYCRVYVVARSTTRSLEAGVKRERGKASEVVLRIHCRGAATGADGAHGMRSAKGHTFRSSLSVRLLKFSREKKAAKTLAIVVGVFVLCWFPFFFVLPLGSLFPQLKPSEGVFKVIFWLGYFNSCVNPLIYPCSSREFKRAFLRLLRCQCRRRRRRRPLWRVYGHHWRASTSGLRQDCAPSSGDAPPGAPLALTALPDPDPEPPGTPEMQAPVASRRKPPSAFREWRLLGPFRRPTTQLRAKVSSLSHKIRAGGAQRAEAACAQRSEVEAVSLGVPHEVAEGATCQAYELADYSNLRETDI
Test: α1-Adrenergic Receptor Binding Assay, 125I-HEAT radio-ligand binding, transfected COS-7 cell membranes, α1d subtype
Conditions: average value, COS-7 membranes, read-out: Alpha 1 Ki α1d (1) Average Value
Measure name: pKi
# pKi: negative log10 of molar concentration; output just the value

{"Molecule": "CC(C)Oc1ccccc1N1CCN(CC2CC(C(=O)N3CCC(Oc4ccccc4)CC3)=NO2)CC1 (centres unmarked) [Compound 29]", "Measure name": "pKi", "Measured value": 8.09}
{"Molecule": "CC(C)Oc1ccccc1N1CCN(CC2CC(C(=O)N3CCc4ccc(NCc5ccccc5F)cc43)=NO2)CC1 (centres unmarked)", "Measure name": "pKi", "Measured value": 7.94}
{"Molecule": "CC(C)Oc1ccccc1N1CCN(CC2CC(C(=O)N3CCCc4ccccc43)=NO2)CC1 (centres unmarked)", "Measure name": "pKi", "Measured value": 7.96}
{"Molecule": "CC(C)Oc1ccccc1N1CCN(CC2CC(CN3CCc4ccc(NCc5c(F)cccc5F)cc43)=NO2)CC1 (centres unmarked)", "Measure name": "pKi", "Measured value": 8.03}
{"Molecule": "CC(C)Oc1ccccc1N1CCN(CC2CC(C(=O)N3CCC(Oc4ccccc4)CC3)=NO2)CC1 (single isomer, unassigned) [Compound 39]", "Measure name": "pKi", "Measured value": 8.07}
{"Molecule": "CC(C)Oc1ccccc1N1CCN(CC2CC(C(=O)N3CCC(C(=O)c4ccccc4)CC3)=NO2)CC1 (centres unmarked)", "Measure name": "pKi", "Measured value": 8.12}

Query: Need pKi, item CC(C)Oc1ccccc1N1CCN(CC2CC(C(=O)N3CCc4cc(Br)ccc43)=NO2)CC1 (centres unmarked)
Result: 8.22

Query: Need pKi, item CC(C)Oc1ccccc1N1CCN(CC2CC(C(=O)N3CCN(c4ccccc4OC(C)C)CC3)=NO2)CC1 (centres unmarked)
Result: 8.18

----------
Entries and their measured log10(Ki) follow.
molecular target: α1d-AR (Homo sapiens, UniProt P25100); construct: expressed in transfected cells; host or cells: COS-7 cells (African Green monkey kidney), membranes; assay: α1-Adrenergic Receptor Binding Assay, 125I-HEAT radio-ligand binding, transfected COS-7 cell membranes, α1d subtype; details: average value, COS-7 membranes, read-out: Alpha 1 Ki α1d (1) Average Value
Values reflect log10 of reported Ki (nM).

The cases that follow already have their log10(Ki) on record.
{"Molecule": "CC(C)Oc1ccccc1N1CCN(CC2CC(C(=O)N3CCOCC3)=NO2)CC1 (single isomer, unassigned) [Compound 44]", "Measure name": "log10(Ki)", "Measured value": 1.30}
{"Molecule": "CC(C)Oc1ccccc1N1CCN(CC2CC(CN3CCc4ccc(N)cc43)=NO2)CC1 (stereo not shown)", "Measure name": "log10(Ki)", "Measured value": 1.66}
{"Molecule": "CC(=O)N1CCc2ccc(NC(=O)C3=NOC(CN4CCN(c5ccccc5OC(C)C)CC4)C3)cc21 (stereo not shown)", "Measure name": "log10(Ki)", "Measured value": 0.60}

Query: Need log10(Ki), item CC(C)Oc1ccccc1N1CCN(CC2CC(C(=O)N3CCC(Oc4ccccn4)CC3)=NO2)CC1 (stereo not shown)
Result: 1.65

Query: Need log10(Ki), item CC(C)Oc1ccccc1N1CCN(CC2CC(C(=O)N3CCc4cc(Cl)ccc43)=NO2)CC1 (stereo not shown)
Result: 0.67

Query: Need log10(Ki), item CC(C)Oc1ccccc1N1CCN(CC2CC(CN3CCCCC3=O)=NO2)CC1 (single isomer, unassigned) [Compound 2]
Result: 0.65

----------
target: α1b-AR (Homo sapiens); construct: expressed in transfected cells; host or cells: COS-7 cells (African Green monkey kidney), membranes; assay: α1-Adrenergic Receptor Binding Assay, 125I-HEAT radio-ligand binding, transfected COS-7 cell membranes, α1b subtype; conditions: individual values, COS-7 membranes, read-out: Alpha 1 Ki α1b (2) Individual Values
Entries and their measured Ki follow.
Field: value (include unit after the number)

{"Compound": "CC(C)Oc1ccccc1N1CCN(CC2CC(CN3CCc4ccc(N)cc43)=NO2)CC1 (centres unmarked) [Compound 6]", "Measured value": "0.41 µM"}

Query: Need Ki, item CC(C)Oc1ccccc1N1CCN(CC2CC(C(=O)N3CCc4cc(Cl)ccc43)=NO2)CC1 (centres unmarked) [Compound 16]
Result: 0.133 µM

Query: Need Ki, item COc1cc2c(cc1OC)N(C(=O)C1=NOC(CN3CCN(c4ccccc4OC(C)C)CC3)C1)CC2 (centres unmarked) [Compound 23]
Result: 0.259 µM

Query: Need Ki, item CC(C)Oc1ccccc1N1CCN(CC2CC(C(=O)N3CCC(Cc4ccccc4)CC3)=NO2)CC1 (centres unmarked) [Compound 27]
Result: 0.219 µM

Query: Need Ki, item CC(C)Oc1ccccc1N1CCN(CC2CC(C(=O)N3CCC(Oc4ccccn4)CC3)=NO2)CC1 (centres unmarked) [Compound 32]
Result: 0.264 µM

----------
Molecular target: α1a-AR (Homo sapiens)
Construct: expressed in transfected cells; host or cells: COS-7 cells (African Green monkey kidney), membranes
Sequence (P35348 1-466): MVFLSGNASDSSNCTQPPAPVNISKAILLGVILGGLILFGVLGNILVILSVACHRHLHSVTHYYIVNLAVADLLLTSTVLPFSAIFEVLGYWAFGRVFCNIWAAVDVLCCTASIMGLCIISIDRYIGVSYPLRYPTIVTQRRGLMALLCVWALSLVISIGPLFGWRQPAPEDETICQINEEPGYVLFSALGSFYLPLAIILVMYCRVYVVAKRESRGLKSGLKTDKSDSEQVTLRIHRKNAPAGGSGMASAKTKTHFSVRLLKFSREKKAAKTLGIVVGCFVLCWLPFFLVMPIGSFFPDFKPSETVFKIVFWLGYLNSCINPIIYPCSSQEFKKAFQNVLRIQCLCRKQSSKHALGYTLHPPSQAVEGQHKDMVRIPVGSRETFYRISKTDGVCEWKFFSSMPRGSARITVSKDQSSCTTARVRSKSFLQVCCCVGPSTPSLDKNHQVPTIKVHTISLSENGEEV
Experiment: α1-Adrenergic Receptor Binding Assay, 125I-HEAT radio-ligand binding, transfected COS-7 cell membranes, α1a subtype
Conditions: individual values, COS-7 membranes, read-out: Alpha 1 Ki α1a (2) Individual Values
Entries and their measured Ki follow.
Hi! Could you send only the number? It should be in nM, unit omitted.

Query: So what Ki did CC(C)Oc1ccccc1N1CCN(CC2CC(C(=O)N3CCC(C(=O)c4ccc(F)cc4)CC3)=NO2)CC1 (single isomer, unassigned) [Compound 40] get with α1a-AR (Homo sapiens)?
Result: 6.44

Query: So what Ki did CC(C)Oc1ccccc1N1CCN(CC2CC(C(=O)N3CCc4cc(Cl)ccc43)=NO2)CC1 (stereo not shown) get with α1a-AR (Homo sapiens)?
Result: 8.3

Query: So what Ki did CC(C)Oc1ccccc1N1CCN(CC2CC(C(=O)N3CCOCC3)=NO2)CC1 (single isomer, unassigned) [Compound 44] get with α1a-AR (Homo sapiens)?
Result: 2.32

Query: So what Ki did CC(C)Oc1ccccc1N1CCN(CC2CC(C(=O)N3CC(C)(C)c4cc(Br)ccc43)=NO2)CC1 (stereo not shown) [Compound 19] get with α1a-AR (Homo sapiens)?
Result: 13

Query: So what Ki did CC(C)Oc1ccccc1N1CCN(CC2CC(CN3CCc4ccccc43)=NO2)CC1 (stereo not shown) get with α1a-AR (Homo sapiens)?
Result: 1.9

Query: So what Ki did CC(C)Oc1ccccc1N1CCN(CC2CC(C(=O)N3CCC(c4ccccc4)(c4ccccc4)CC3)=NO2)CC1 (stereo not shown) get with α1a-AR (Homo sapiens)?
Result: 25

Query: So what Ki did CC(C)Oc1ccccc1N1CCN(CC2CC(C(=O)N3CCCc4ccccc43)=NO2)CC1 (stereo not shown) get with α1a-AR (Homo sapiens)?
Result: 6.7
